target: adenosine receptors; conditions: read-out: Apparent EC50 (slowly increased P-DMR, Gs-type)

smiles.data: CCNC(=O)[C@H]1O[C@@H](n2cnc3c(N)ncnc32)[C@H](O)[C@@H]1O
EC50 / nM: 21.5
